# maps each entry to its EC50
systemUnderTest: REV-ERBα LBD (human; residues 281-614 Δ324-422) (Homo sapiens, UniProt P20393, DEL324-422)
Construct: 6×Histag-REV-ERBα LBD (human; residues 281-614 Δ324-422); made in house; host or cells: Escherichia coli
Sequence (P20393 with tags, fused parts or gaps DEL324-422): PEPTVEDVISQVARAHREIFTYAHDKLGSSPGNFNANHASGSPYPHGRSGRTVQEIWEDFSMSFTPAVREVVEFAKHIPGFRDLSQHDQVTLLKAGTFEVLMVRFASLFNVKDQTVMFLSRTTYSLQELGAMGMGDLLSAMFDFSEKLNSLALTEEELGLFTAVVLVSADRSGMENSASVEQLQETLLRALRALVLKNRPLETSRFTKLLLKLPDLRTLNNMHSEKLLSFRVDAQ
Sequence (Q9Y618 2335-2356 partner limits assumed): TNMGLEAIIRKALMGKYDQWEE
assaySummary: TR-FRET corepressor interaction assay (REV-ERBα LBD, FITC-SMRT peptide)
Type: biochemical
assayContext: Table 2, read-out: REVERBα agonism (EC50 class, FRET assay)

>>> result("CC(C)(C)Cn1cc([C@H](NS(=O)(=O)C2CC2)C(F)(F)F)c2cc(F)c(-c3ccccc3Cl)cc21 [Example 331]")
"< 0.5 µM"
>>> result("CC(C)Cn1cc(CCNS(=O)(=O)N(C)C)c2ccc(-c3cnoc3)cc21 [Compound 65]")
"0.5 to 3 µM"

Exam item: Could you share which EC50 value was measured for CC(C)(C)Cc1cn(CCNS(=O)(=O)C2CCC2)c2ccc(-c3ccc(C(F)(F)F)cc3C(F)(F)F)cc12 [Example 418] ?
Marked response: < 0.5 µM

Exam item: Could you share which EC50 value was measured for CC(C)Cn1cc(CCNS(=O)(=O)N(C)C)c2ccc(C(C)C)cc21 [Compound 91] ?
Marked response: < 0.5 µM

----------
systemUnderTest: REV-ERBα LBD (human; residues 281-614 Δ324-422) (Homo sapiens, UniProt P20393, DEL324-422)
Construct: 6×Histag-REV-ERBα LBD (human; residues 281-614 Δ324-422); made in house; host or cells: Escherichia coli
assaySummary: TR-FRET corepressor interaction assay (REV-ERBα LBD, FITC-SMRT peptide)
Assay type: biochemical
assayContext: Table 2, read-out: REVERBα agonism (EC50 class, FRET assay)
pEC50: −log10 of the molar value.
quantityKind: pEC50

>>> result("Cc1noc(C)c1-c1ccc2c(CCNS(=O)(=O)N(C)C)cn(CC(C)C)c2c1")
"< 5.52"
>>> result("CCN(CCc1cn(CC)c2cc(-c3ccncc3)ccc12)S(=O)(=O)N(C)C")
"5.52 to 6.30"
>>> result("Cc1ccc(-c2ccc3c(CCNS(=O)(=O)N(C)C)cn(CC(C)C)c3c2)cc1")
"5.52 to 6.30"

Now, please, on to the next compound.
Exam item: Could you share which pEC50 value was measured for CC(C)C(=O)n1cc(C(C)NS(=O)(=O)N(C)C)c2ccc(-c3ccccc3Cl)cc21 (stereo not shown) ?
Marked response: > 6.30

----------
systemUnderTest: REV-ERBα LBD (human; residues 281-614 Δ324-422) (Homo sapiens, UniProt P20393, DEL324-422)
Construct: 6×Histag-REV-ERBα LBD (human; residues 281-614 Δ324-422); made in house; host or cells: Escherichia coli
assaySummary: TR-FRET corepressor interaction assay (REV-ERBα LBD, FITC-SMRT peptide)
Format: biochemical
assayContext: Table 2, read-out: REVERBα agonism (EC50 class, FRET assay)
quantityKind: EC50

>>> result("CC(C)S(=O)(=O)NCCc1cn(CC(C)(C)C)c2cc(-c3ccccc3C(F)(F)F)c(F)cc12")
"< 0.5 µM"

Exam item: Could you share which EC50 value was measured for CC(C)Cn1cc(CNS(=O)(=O)C(C)C)c2cc(F)c(-c3ccccc3Cl)cc21 ?
Marked response: < 0.5 µM

Exam item: Could you share which EC50 value was measured for CC(C)Cn1cc(CCNS(=O)(=O)N(C)C)c2ccc(C3(O)CCC3)cc21 ?
Marked response: 0.5 to 3 µM

Exam item: Could you share which EC50 value was measured for CC(C)Cn1cc(CCNS(=O)(=O)N(C)C)c2ccc(-c3cccc4cnccc34)cc21 ?
Marked response: > 3 µM

Exam item: Could you share which EC50 value was measured for CC(C)Cn1cc(CCNS(=O)(=O)N(C)C)c2ccc(-c3ncccn3)cc21 ?
Marked response: 0.5 to 3 µM

Exam item: Could you share which EC50 value was measured for CC(C)Cn1cc([C@H](NS(=O)(=O)C2CC2)C(F)(F)F)c2ccc(C3CC3)cc21 ?
Marked response: < 0.5 µM

----------
systemUnderTest: REV-ERBα LBD (human; residues 281-614 Δ324-422) (Homo sapiens, UniProt P20393, DEL324-422)
Construct: 6×Histag-REV-ERBα LBD (human; residues 281-614 Δ324-422); made in house; host or cells: Escherichia coli
assaySummary: TR-FRET corepressor interaction assay (REV-ERBα LBD, FITC-SMRT peptide)
Format: biochemical
assayContext: Table 2, read-out: REVERBα agonism (EC50 class, FRET assay)
quantityKind: EC50

Answered examples (3):
>>> result("CC(C)(C)Cn1cc([C@H](NS(=O)(=O)C2CC2)C(F)(F)F)c2cc(C(F)(F)F)c(Br)cc21 [Example 376]")
"> 3000 nM"
>>> result("CC(C)Cn1cc([C@H](NS(=O)(=O)C2CC2)C(F)(F)F)c2ccc(-c3ccccc3C(F)(F)F)cc21 [Example 410]")
"< 500 nM"
>>> result("CC(C)Cn1cc(CNS(=O)(=O)N(C)C)c2ccc(-c3ccncc3)cc21 [Compound 238]")
"500 to 3000 nM"

Exam item: API: value(readout=EC50, system=REV-ERBα LBD (human; residues 281-614 Δ324-422) (Homo sapiens, UniProt P20393, DEL324-422)) for record CC(C)Cn1cc(CCNS(=O)(=O)N(C)C)c2ccc(C3CCCC3)cc21 [Compound 99]
Marked response: < 500 nM

----------
systemUnderTest: REV-ERBβ (Homo sapiens)
Construct: 6×Histag-REV-ERBα LBD (human; residues 381-579)
assaySummary: TR-FRET corepressor interaction assay (REV-ERBβ, FITC-SMRT peptide)
assayContext: Table 2, read-out: REVERBβ agonism (EC50 class, FRET assay)
# maps each entry to its EC50

Answered examples (2):
>>> result("CC(C)c1ccc2c([C@H](NS(=O)(=O)N(C)C)C(F)(F)F)cn(CC(C)(C)C)c2c1 [Example 340]")
"0.5 to 3 µM"
>>> result("CC(C)(C)Cc1cn(CCNS(=O)(=O)C2CC2)c2ccc(-c3ccc(F)cc3C(F)(F)F)cc12 [Example 301]")
"0.5 to 3 µM"

Exam item: Could you share which EC50 value was measured for CC(C)Cn1cc(CCNS(=O)(=O)N(C)C)c2ccc(-c3ccncc3)cc21 [Compound 27] ?
Marked response: 0.5 to 3 µM

Exam item: Could you share which EC50 value was measured for CCC(C)n1cc(CCNS(=O)(=O)N(C)C)c2ccc(-c3ccncc3)cc21 (centres unmarked) [Compound 230] ?
Marked response: 0.5 to 3 µM

Exam item: Could you share which EC50 value was measured for CC(C)(C)Cc1cn(CCNS(=O)(=O)C2CC2)c2ccc(Br)cc12 [Example 298] ?
Marked response: > 3 µM

Exam item: Could you share which EC50 value was measured for CC(C)(C)Cc1cn(CCNS(=O)(=O)C2CC2)c2ccc(-c3c(Cl)cccc3Cl)cc12 [Example 214] ?
Marked response: 0.5 to 3 µM

Exam item: Could you share which EC50 value was measured for CC(C)(C)Cn1cc([C@H](NS(=O)(=O)C2CC2)C(F)(F)F)c2cc(F)c(-c3ccccc3Cl)cc21 [Example 331] ?
Marked response: 0.5 to 3 µM

Exam item: Could you share which EC50 value was measured for CC(C)(C)Cc1cn(CCNS(=O)(=O)C2CC2)c2ccc(-c3c(Cl)cc(F)cc3Cl)cc12 [Example 297] ?
Marked response: 0.5 to 3 µM

----------
systemUnderTest: REV-ERBβ (Homo sapiens, UniProt Q14995)
Construct: 6×Histag-REV-ERBα LBD (human; residues 381-579)
Sequence (Q14995 381-579): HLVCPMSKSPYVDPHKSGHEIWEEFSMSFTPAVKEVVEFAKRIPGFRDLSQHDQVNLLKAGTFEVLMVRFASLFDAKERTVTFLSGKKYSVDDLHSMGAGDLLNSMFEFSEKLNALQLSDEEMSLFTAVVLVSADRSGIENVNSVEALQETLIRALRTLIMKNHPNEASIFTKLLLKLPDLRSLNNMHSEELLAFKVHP
assaySummary: TR-FRET corepressor interaction assay (REV-ERBβ, FITC-SMRT peptide)
assayContext: Table 2, read-out: REVERBβ agonism (EC50 class, FRET assay)
# maps each entry to its EC50

>>> result("CC(C)Cn1cc(CCNS(=O)(=O)N(C)C)c2ccc(C(C)C)cc21")
"0.5 to 3 µM"

Exam item: Could you share which EC50 value was measured for CC(C)(C)Cc1cn(CCNS(=O)(=O)C2CC2)c2ccc(-c3ccc(C(F)(F)F)cc3Cl)cc12 ?
Marked response: 0.5 to 3 µM

Exam item: Could you share which EC50 value was measured for CC(C)Cn1cc(CCNS(=O)(=O)N(C)C)c2ccc(-c3cc[nH]c(=O)c3)cc21 ?
Marked response: > 3 µM
